Test system: HCT-15

{"columns": ["molecule", "GI50"],
 "data": [
  ["O=c1n(-c2ccccc2)c(=O)n2n1C1Cc3ccccc3C12 (configuration not stated)", "> 100 µM"],
  ["Cc1[nH]c2ncn(/N=C/c3ccccc3O)c(=N)c2c1Cc1ccccc1", "46.3 µM"],
  ["Cc1c(C(=O)C(=O)c2ccccc2)c(C)c(C(=O)C(=O)c2ccccc2)c(C)c1C(=O)C(=O)c1ccccc1", "> 100 µM"],
  ["C(=N\\OCCc1ccccc1)/c1cccnc1", "> 100 µM"],
  ["CC(=O)Nc1ccc(-c2nc3ccccc3s2)cc1I", "> 83.4 µM"],
  ["C=CCC1=C2CCCCC2CCC1=O (configuration not stated)", "> 100 µM"],
  ["C=CC(=O)NC(O)(C(=O)OCC)C(F)(F)F (configuration not stated)", "> 100 µM"],
  ["COC(=O)C1=C(C(=O)OC)N(C(C)C)[C@H]2C(C(=O)OC)=C(C(=O)OC)N(C(C)C)[C@@H]12", "> 100 µM"],
  ["COc1cc([C@@H]2c3cc4c(cc3[C@@H](c3c(O)cc(O)c5c3O[C@H](c3ccc(O)c(O)c3)[C@@H](O)C5)[C@H]3COC(=O)[C@H]23)OCO4)cc(OC)c1O", "> 100 µM"],
  ["Cc1nnc(Nc2ccc(Cl)cc2)o1", "> 10 µM"],
  ["CCOC1=NC(O)c2cccn2-c2sccc21 (configuration not stated)", "> 100 µM"],
  ["C#CC(C)(C)OC(=O)C(=[N+]=[N-])C(C)=O", "> 10 µM"],
  ["CC[C@](O)(C(=O)O)c1cc2n(c(=O)c1CO)Cc1cc3ccccc3nc1-2", "0.0964 µM"],
  ["C=CCN(N=O)C(=O)NCCCC(NC(C)=O)C(=O)NCc1ccccc1 (configuration not stated)", "> 100 µM"],
  ["COc1ccc2nc3n(c2c1)C(=O)c1ccccc1-3", "> 100 µM"],
  ["O=C(O)c1ccc(NCc2nc3cc4ccccc4cc3[nH]2)cc1", "26.7 µM"],
  ["CC(C)(C)C(=O)OCC1C(=O)OCC1C(=O)N1Cc2cc3ccccc3nc2C1 (configuration not stated)", "1.75 µM"],
  ["N#Cc1c(CC(=O)O)cc(=O)n2c1[nH]c1ccccc12", "> 100 µM"],
  ["CC(C)OP(=O)(OC(C)C)c1nn(-c2ccc([N+](=O)[O-])cc2)c(=N)s1", "> 100 µM"],
  ["COC(=O)C(CC(C)=O)CS(=O)(=O)CC(=O)C(=O)Nc1cccc([N+](=O)[O-])c1 (configuration not stated)", "> 100 µM"],
  ["CCCCCCCCCCCCCCCC[N+](C)(C)Cc1ccc(C[N+](C)(C)CCCCCCCCCCCCCCCC)cc1", "3.66 µM"],
  ["Cc1nc2c(=O)n3c4c(cccc4c2o1)CCC3", "49.4 µM"]
]}

* * *

System: NCI-H226
assayProcedure: NCI tumour cell line growth inhibition, 48 h
Activity calls are given as the source filed them. Cut-off read from the data, not from the text of the source: active = GI50 up to about 1.1 µM and inactive = higher.
Classes used: active, inactive

{"columns": ["compound", "system", "classAssignment"],
 "data": [
  ["C/C(=N\\NC(=S)N1CCCC1)c1nc2cccnc2[nH]1", "NCI-H226", "active"],
  ["COC(=O)c1cc(C)ccc1C1CN=NC12Cc1c(C)cc(C)cc1C2=O (stereo unspecified)", "NCI-H226", "inactive"],
  ["CCOC(=O)CCc1c(C)nc2c(C)c3c([nH]c4ccc(Cl)cc43)c(C)c2c1O", "NCI-H226", "inactive"],
  ["Nc1nc(N)c(N=O)c(Nc2ccc(Br)cc2)n1", "NCI-H226", "inactive"],
  ["O=C1OC(=O)C2C3CCC(O3)C12 (stereo unspecified)", "NCI-H226", "inactive"],
  ["O=c1ccc2cc3ccc4cccc5ccc(c2o1)c3c45", "NCI-H226", "inactive"]
]}

Every entry's value here was drawn from ChEMBL document CHEMBL1201862.
